# System: 4 PI3K isoforms (Human recombinant GST-PI3K)
# test: PI3K scintillation proximity assay, best IC50 obtained with the four isoforms (alpha, beta, delta, gamma)
# Format: biochemical
# condition: best IC50 obtained with the four isoforms of PI3K; read-out: Best potency measured on the 4 PI3K isoforms
Attribute: IC50
experimental_endpoint: IC50

{"molecule": "O=C(c1nn(-c2ccc(CN3CCOCC3)cc2)c2c1CS(=O)(=O)c1ccc(F)cc1-2)N1CCOCC1", "experimental_endpoint": "IC50", "assay_value": "0.555 µM"}
{"molecule": "COCCn1nc(C(=O)N2CCOCC2)c2c1-c1ccccc1S(=O)(=O)C2", "experimental_endpoint": "IC50", "assay_value": "1.29 µM"}
{"molecule": "COC1CCN(Cc2cccc(-n3nc(C(=O)N4CCOCC4)c4c3-c3ccccc3S(=O)(=O)C4)c2)C1 (stereo not shown)", "experimental_endpoint": "IC50", "assay_value": "0.35 µM"}
{"molecule": "O=C(c1nn([C@H]2CCCN(CCC3CCOCC3)C2)c2c1CS(=O)(=O)c1ccccc1-2)N1CCOCC1 (single isomer, unassigned)", "experimental_endpoint": "IC50", "assay_value": "0.034 µM"}
{"molecule": "O=C(c1nn(-c2cccc(CN3CC(F)(F)C3)c2)c2c1CS(=O)(=O)c1ccccc1-2)N1CCOCC1", "experimental_endpoint": "IC50", "assay_value": "0.643 µM"}
{"molecule": "COCCCn1nc(C(=O)N2CCOCC2)c2c1-c1ccccc1S(=O)(=O)C2", "experimental_endpoint": "IC50", "assay_value": "0.907 µM"}
{"molecule": "O=C(c1nn(CCc2ccccn2)c2c1CS(=O)(=O)c1ccccc1-2)N1CCOCC1", "experimental_endpoint": "IC50", "assay_value": "1.92 µM"}
{"molecule": "O=C(c1nn(-c2cccc(Cn3cccn3)c2)c2c1CS(=O)(=O)c1ccccc1-2)N1CCOCC1", "experimental_endpoint": "IC50", "assay_value": "0.488 µM"}
{"molecule": "O=C(c1nn(C2CCCC(C(=O)N3CCCCC3)C2)c2c1CS(=O)(=O)c1ccccc1-2)N1CCOCC1 (stereo not shown)", "experimental_endpoint": "IC50", "assay_value": "0.362 µM"}
{"molecule": "O=C(c1nn(-c2ccccc2)c2c1CS(=O)(=O)c1c(Br)cccc1-2)N1CCOCC1", "experimental_endpoint": "IC50", "assay_value": "0.494 µM"}

* * *

# Tested on: 4 PI3K isoforms (Human recombinant GST-PI3K)
# test: PI3K scintillation proximity assay, best IC50 obtained with the four isoforms (alpha, beta, delta, gamma)
# Type: biochemical
# condition: best IC50 obtained with the four isoforms of PI3K; read-out: Best potency measured on the 4 PI3K isoforms
pIC50: −log10 of the molar value.
experimental_endpoint: pIC50

{"compound": "O=C1CCCN1CCN1CCC[C@H](n2nc(C(=O)N3CCOCC3)c3c2-c2ccccc2S(=O)(=O)C3)C1 (single isomer, unassigned)", "test_system": "4 PI3K isoforms (Human recombinant GST-PI3K)", "experimental_endpoint": "pIC50", "assay_value": 7.10}
{"compound": "O=C(c1nn(C2CCN(CCN3CC[C@@H](F)C3)C2)c2c1CS(=O)(=O)c1ccccc1-2)N1CCOCC1 (some centres unmarked)", "test_system": "4 PI3K isoforms (Human recombinant GST-PI3K)", "experimental_endpoint": "pIC50", "assay_value": 6.92}
{"compound": "O=C(c1nn(C2CCCN(CCn3cccn3)C2)c2c1CS(=O)(=O)c1c(F)cccc1-2)N1CCOCC1 (centres unmarked)", "test_system": "4 PI3K isoforms (Human recombinant GST-PI3K)", "experimental_endpoint": "pIC50", "assay_value": 7.10}
{"compound": "COCCN1CCC[C@H](n2nc(C(=O)N3CCOCC3)c3c2-c2cccc(C)c2S(=O)(=O)C3)C1 (single isomer, unassigned)", "test_system": "4 PI3K isoforms (Human recombinant GST-PI3K)", "experimental_endpoint": "pIC50", "assay_value": 7.02}
{"compound": "COCCN1CCC[C@H](n2nc(C(=O)N3CCOCC3)c3c2-c2cccc(OC)c2S(=O)(=O)C3)C1 (single isomer, unassigned)", "test_system": "4 PI3K isoforms (Human recombinant GST-PI3K)", "experimental_endpoint": "pIC50", "assay_value": 6.89}
